Test system: U-251
Experiment: NCI tumour cell line growth inhibition, 48 h
Calls of active or inactive are those of the source. Rule as the data show it: active = GI50 up to about 1.1 µM and inactive = higher.
Outcome codes: label 1 = active, label 0 = inactive

{"molecule": "COC1C(N)C(OC2C(Oc3cccc4c(O)c5c(=O)oc6ccc(C)c7c(=O)oc(c34)c5c67)OC(C)C(O)C2(C)O)OC(C)C1O (stereo not given)", "group": "label 1"}
{"molecule": "CCOC(=O)C(=O)Nc1ccccc1OCC", "group": "label 0"}
{"molecule": "OCCCCCCOc1ccc(-c2cc(-c3ccccn3)nc(-c3ccccn3)c2)cc1", "group": "label 1"}
{"molecule": "COc1ccc(/C=C2\\N/C(=N\\N=C/C(O)C(O)C(O)C(O)CO)NC2=O)cc1 (stereo not given)", "group": "label 0"}
{"molecule": "COc1cc2c(c(O)c1OC)CC1CCC(=O)N1C2c1cccc2ccccc12 (stereo not given)", "group": "label 0"}
{"molecule": "CCOC(=O)c1cc(Br)c(-c2cc(C)no2)[nH]1", "group": "label 0"}
{"molecule": "COC(=O)[C@@]12C=CC(=O)[C@H]3C[C@@H](C(C(C)C)C1)[C@]32OC (stereo not given in full)", "group": "label 0"}
{"molecule": "Cn1c2ccc([N+](=O)[O-])cc2c(=O)n1Cc1ccccc1F", "group": "label 0"}
{"molecule": "COc1ccc(/C=C/C(=O)c2sc(NC(=S)NC(=O)c3ccccc3F)nc2C)cc1OC", "group": "label 0"}
{"molecule": "CCC1=C(C)/C(=C/c2[nH]c(C(Br)Br)c(CC)c2C)N=C1C(Br)Br", "group": "label 0"}
{"molecule": "Clc1ccc(C2NN=C3c4ccccc4OCC32)cc1 (stereo not given)", "group": "label 0"}
{"molecule": "CO/C(=N\\N=C\\c1ccccc1F)c1ccncc1", "group": "label 0"}
{"molecule": "Cc1c(S(=O)(=O)O)ccc(/N=N/c2c(O)c(C(=O)O)cc3ccccc23)c1Cl", "group": "label 0"}
{"molecule": "CCOC(=O)C1=C(NC(C)(C)C)OCC1=O", "group": "label 0"}
{"molecule": "CCCCC/N=C/c1c(O)c(O)c(C(C)C)c2cc(C)c(-c3c(C)cc4c(C(C)C)c(O)c(O)c(/C=N/CCCCC)c4c3O)c(O)c12", "group": "label 0"}
{"molecule": "COc1cc(Br)c(/C=N\\c2cccc3ccc(OS(=O)(=O)c4cccc([N+](=O)[O-])c4)cc23)cc1OC", "group": "label 0"}
{"molecule": "O=C(c1ccccc1)c1ccc(N2C(=O)/C(=C/c3cccc(Oc4ccccc4)c3)N=C2c2ccccc2)c(N2C(=O)/C(=C/c3cccc(Oc4ccccc4)c3)N=C2c2ccccc2)c1", "group": "label 0"}
{"molecule": "CCOC(=O)/C=C/n1c2ccccc2c(=O)c2ccccc21", "group": "label 0"}
{"molecule": "NCCCNCCCCN1CC1", "group": "label 0"}
{"molecule": "COC(=O)c1ccccc1C1CN=NC12Cc1c(ccc(C)c1C)C2=O (stereo not given)", "group": "label 0"}

====

Test system: DU-145
Assay: NCI tumour cell line growth inhibition, 48 h
Calls of active or inactive are those of the source. No stated cut-off is given here; in the data, active = GI50 up to about 1.1 µM and inactive = higher.

{"compound": "CC(=O)N1c2ccccc2C23CCN(C)CC4C(C)OCC(C4CC2=O)C13 (configuration not stated)", "GI50": "> 100 µM (inactive)"}
{"compound": "O=C(CCCl)NN=C1NCCN1", "GI50": "> 100 µM (inactive)"}
{"compound": "CN1CCC23c4c5ccc(O)c4OC2c2[nH]c4ccccc4c2CC3(O)C1C5 (configuration not stated)", "GI50": "97.7 µM (inactive)"}
{"compound": "Cc1c(S(=O)(=O)O)ccc(/N=N/c2c(O)c(C(=O)O)cc3ccccc23)c1Cl", "GI50": "> 100 µM (inactive)"}
{"compound": "Clc1ncnc2c1nc(C#Cc1ccccc1)n2C1CCCCO1 (configuration not stated)", "GI50": "1.47 µM (inactive)"}
{"compound": "CC1(C)CCC[C@@]2(C)C1CC[C@@]1(CO)O[C@H](C3=CC(=O)OC3O)C[C@H]12 (some centres not stated)", "GI50": "13.3 µM (inactive)"}
{"compound": "O=c1[nH]c2cc(C(F)(F)F)ccc2nc1CBr", "GI50": "14.3 µM (inactive)"}
{"compound": "COc1cc2c(c(OC)c1OC)C(=O)c1c(O)cc(C)c(OC)c1C2=O", "GI50": "> 100 µM (inactive)"}
{"compound": "Cc1ccc(-c2nc3cc([N+](=O)[O-])ccc3[nH]2)cc1", "GI50": "82.8 µM (inactive)"}
{"compound": "CN(C)c1ccc2nc3c(C(=O)O)cc(O)c(O)c3[o+]c2c1", "GI50": "31.8 µM (inactive)"}
{"compound": "C/C(=N\\O)c1ccc(Nc2nc3ccccc3c3occc23)cc1", "GI50": "9.57 µM (inactive)"}
{"compound": "COc1ccc(-c2oc3c(OC)c(OC)c(OC)c(O)c3c(=O)c2OC)cc1OC", "GI50": "36.2 µM (inactive)"}
{"compound": "CC(C)C(=O)Oc1cc2c(=O)oc3c(OC(=O)C(C)C)c(OC(=O)C(C)C)cc4c(=O)oc(c1OC(=O)C(C)C)c2c34", "GI50": "> 100 µM (inactive)"}
{"compound": "CCO/C(=N/S(=O)(=O)C(F)(F)F)N(C(C)C)C(C)C", "GI50": "> 100 µM (inactive)"}
{"compound": "Oc1ccc2c3c1OC1c4[nH]c5c(c4CC4(O)C(C2)N(CC2CC2)CC[C@]314)CC1(O)C2Cc3ccc(O)c4c3[C@@]1(CCN2CC1CC1)C5O4 (some centres not stated)", "GI50": "37.2 µM (inactive)"}
{"compound": "Clc1cccc(Cl)c1C1SCc2nc3cc4ccccc4cc3n21 (configuration not stated)", "GI50": "> 100 µM (inactive)"}
{"compound": "Clc1ccc(Nc2nc(Cl)c3nc[nH]c3n2)cc1Cl", "GI50": "28.5 µM (inactive)"}
{"compound": "COC(=O)[C@H](Cc1ccccc1)NC(=O)N(CCNC(=O)OC(C)(C)C)c1ccccc1", "GI50": "> 100 µM (inactive)"}
{"compound": "CC1=CC[C@H](C(C)C)C(C(O)[C@@H](C)O[Si](c2ccccc2)(c2ccccc2)C(C)(C)C)C1=O (some centres not stated)", "GI50": "21.4 µM (inactive)"}
{"compound": "CO/C(=N\\N=C\\c1ccccc1F)c1ccncc1", "GI50": "> 10 µM (inactive)"}
{"compound": "Cn1cc(-c2csc(-c3cn(C)c4ccccc34)n2)c2ccccc21", "GI50": "42.9 µM (inactive)"}
{"compound": "COC(=O)c1ccc(C)cc1C1CN=NC12Cc1cccc(C)c1C2=O (configuration not stated)", "GI50": "65.2 µM (inactive)"}
{"compound": "CC1CC(N)=Nc2ccccc2N1 (configuration not stated)", "GI50": "> 100 µM (inactive)"}
{"compound": "CCCCCC[C@H]([C@H](C)O)n1cnc2c(N)ncnc21", "GI50": "> 100 µM (inactive)"}
{"compound": "CC12CCc3ccccc3C1=Nc1ccccc12 (configuration not stated)", "GI50": "> 100 µM (inactive)"}
{"compound": "CSc1nc(O)c(C#N)c(-c2ccc(Cl)cc2)n1", "GI50": "> 100 µM (inactive)"}
{"compound": "CC(=O)NNC1=NN(C(C)=O)C2(S1)C(=O)Nc1ccc(Br)cc12 (configuration not stated)", "GI50": "> 100 µM (inactive)"}
{"compound": "COC(=O)c1ccccc1C1CN=NC12Cc1c(ccc(C)c1C)C2=O (configuration not stated)", "GI50": "> 100 µM (inactive)"}
{"compound": "CN(C)c1nc2oc(-c3ccccc3)c(-c3ccccc3)c2c2nnnn12", "GI50": "> 100 µM (inactive)"}
{"compound": "C=C1CC(COc2ccc3c(C)c(C)c(=O)oc3c2C)(c2ccccc2)OC1=O (configuration not stated)", "GI50": "2.07 µM (inactive)"}
{"compound": "Cc1ccc2nc(Cl)c(/C=N/N3C(=O)/C(=C/c4cccc([N+](=O)[O-])c4)N=C3c3ccccc3)cc2c1", "GI50": "> 100 µM (inactive)"}
{"compound": "CC1=C[C@H]([C@H]2C=C(C)C(C(N)=O)=CN2Cc2c(Cl)cccc2Cl)N(Cc2c(Cl)cccc2Cl)C=C1C(N)=O", "GI50": "> 75 µM (inactive)"}
{"compound": "Cc1c(C)c(C)c(-n2c(=O)n(C)c(=O)n2-c2cc(C(C)(C)C)cc(C(C)(C)C)c2O)c(C)c1C", "GI50": "12.7 µM (inactive)"}
{"compound": "Clc1ccc(CCNCCNC2(c3cc4ccccc4s3)CCCCC2)cc1Cl", "GI50": "1.88 µM (inactive)"}
{"compound": "COC(=O)[C@@H]1CN(C(=O)CCc2ccccc2)C(=O)N1", "GI50": "> 100 µM (inactive)"}
{"compound": "Cc1ccc2c(c1)C/C(=C\\c1ccccc1C(=O)O)C2=O", "GI50": "> 100 µM (inactive)"}
{"compound": "O[C@H]1[C@H]2[C@H](O)C[C@H](CCOCc3ccccc3)CN2C[C@H]1O", "GI50": "> 100 µM (inactive)"}
{"compound": "CC(=O)C1=C(C)O[C@@H]2O[C@H](COCc3ccccc3)[C@@H](OCc3ccccc3)[C@H](O)[C@@H]2S1", "GI50": "20.8 µM (inactive)"}
{"compound": "c1ccc(C(CCN2CCCC2)c2ccccn2)cc1 (configuration not stated)", "GI50": "> 100 µM (inactive)"}
{"compound": "O=C1C=C(Nc2cccnc2)c2ccccc2/C1=N/O", "GI50": "50.5 µM (inactive)"}
{"compound": "OCC12C3C4C5C3C1C5C42 (configuration not stated)", "GI50": "> 100 µM (inactive)"}
{"compound": "COc1cc(Br)c(CC2C3=C(CCN2C(=O)C2CCC2)CC2(CC3)OCCO2)cc1O (configuration not stated)", "GI50": "> 100 µM (inactive)"}
